# measured on: UniProt:P04054
# Sequence (P04054 whole entry): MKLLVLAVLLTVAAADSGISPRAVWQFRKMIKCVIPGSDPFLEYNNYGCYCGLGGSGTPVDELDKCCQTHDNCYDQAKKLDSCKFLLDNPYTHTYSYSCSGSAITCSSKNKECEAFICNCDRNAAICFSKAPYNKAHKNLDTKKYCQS
# Format: functional
Active and inactive are the calls of the source.
Respond using exactly one of the listed classes: yes for active, no for inactive

Observe how each entry below is paired with its result.
Look up the recorded call for CC1CC(C)CN(C(=O)C2CCN(S(=O)(=O)c3ccc4c(c3)CC(C)N4C(=O)C3CC3)CC2)C1 (centres undefined) in this test.
yes

Look up the recorded call for O=C(O)Cc1sc(NC2CCCCC2)nc1-c1ccc(Cl)cc1 in this test.
yes

Look up the recorded call for CCCc1cc(=O)[nH]c(SCC(=O)N2N=C(c3ccc(Cl)cc3)CC2c2ccco2)n1 (centres undefined) in this test.
yes

Please find the next molecule below.
Look up the recorded call for CN1CCN(C2=C(Cl)C(=O)c3ccccc3C2=O)CC1 in this test.
no

----------
# measured on: Protein skinhead-1 (Caenorhabditis elegans)
# Sequence (P34707 whole entry): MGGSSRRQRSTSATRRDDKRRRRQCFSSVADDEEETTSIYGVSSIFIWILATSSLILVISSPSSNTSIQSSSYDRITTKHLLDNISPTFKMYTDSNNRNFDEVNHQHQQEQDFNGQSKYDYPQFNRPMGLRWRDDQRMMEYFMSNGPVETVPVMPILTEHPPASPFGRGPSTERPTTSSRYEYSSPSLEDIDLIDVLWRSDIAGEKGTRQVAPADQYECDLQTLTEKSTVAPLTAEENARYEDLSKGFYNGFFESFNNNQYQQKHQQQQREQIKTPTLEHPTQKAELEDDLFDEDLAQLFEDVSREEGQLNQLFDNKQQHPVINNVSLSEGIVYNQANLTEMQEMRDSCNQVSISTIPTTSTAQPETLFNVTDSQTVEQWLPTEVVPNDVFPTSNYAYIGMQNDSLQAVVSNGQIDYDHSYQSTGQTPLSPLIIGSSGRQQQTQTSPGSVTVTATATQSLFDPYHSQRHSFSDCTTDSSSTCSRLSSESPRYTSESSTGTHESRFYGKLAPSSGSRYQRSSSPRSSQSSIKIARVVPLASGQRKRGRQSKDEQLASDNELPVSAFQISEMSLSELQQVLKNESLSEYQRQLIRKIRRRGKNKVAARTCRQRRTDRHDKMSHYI
# Type: functional
Activity calls are given as the source filed them.
Respond using exactly one of the listed classes: Y for active, N for inactive

Observe how each entry below is paired with its result.
Look up the recorded call for Nc1c(C(=O)Nc2ccc(F)cc2)sc2nc(-c3ccco3)ccc12 in this test.
N

Look up the recorded call for Cn1nnc2cc(C(=O)NCCC3=CCCCC3)ccc21 in this test.
N

Look up the recorded call for Fc1ccc(-c2nnc(-c3ccc(Cl)cc3Cl)o2)cc1 in this test.
N

Look up the recorded call for COC(=O)c1ccc(CSc2nc3ccccc3o2)cc1 in this test.
Y

New cases:
Look up the recorded call for O=C(O)c1ccc(S(=O)(=O)c2ccccc2)cc1 in this test.
N

----------
# measured on: Arf-GAP with SH3 domain, ANK repeat and PH domain-containing protein 1 (Homo sapiens)
# Sequence (Q9ULH1 whole entry, the tested form may be a part): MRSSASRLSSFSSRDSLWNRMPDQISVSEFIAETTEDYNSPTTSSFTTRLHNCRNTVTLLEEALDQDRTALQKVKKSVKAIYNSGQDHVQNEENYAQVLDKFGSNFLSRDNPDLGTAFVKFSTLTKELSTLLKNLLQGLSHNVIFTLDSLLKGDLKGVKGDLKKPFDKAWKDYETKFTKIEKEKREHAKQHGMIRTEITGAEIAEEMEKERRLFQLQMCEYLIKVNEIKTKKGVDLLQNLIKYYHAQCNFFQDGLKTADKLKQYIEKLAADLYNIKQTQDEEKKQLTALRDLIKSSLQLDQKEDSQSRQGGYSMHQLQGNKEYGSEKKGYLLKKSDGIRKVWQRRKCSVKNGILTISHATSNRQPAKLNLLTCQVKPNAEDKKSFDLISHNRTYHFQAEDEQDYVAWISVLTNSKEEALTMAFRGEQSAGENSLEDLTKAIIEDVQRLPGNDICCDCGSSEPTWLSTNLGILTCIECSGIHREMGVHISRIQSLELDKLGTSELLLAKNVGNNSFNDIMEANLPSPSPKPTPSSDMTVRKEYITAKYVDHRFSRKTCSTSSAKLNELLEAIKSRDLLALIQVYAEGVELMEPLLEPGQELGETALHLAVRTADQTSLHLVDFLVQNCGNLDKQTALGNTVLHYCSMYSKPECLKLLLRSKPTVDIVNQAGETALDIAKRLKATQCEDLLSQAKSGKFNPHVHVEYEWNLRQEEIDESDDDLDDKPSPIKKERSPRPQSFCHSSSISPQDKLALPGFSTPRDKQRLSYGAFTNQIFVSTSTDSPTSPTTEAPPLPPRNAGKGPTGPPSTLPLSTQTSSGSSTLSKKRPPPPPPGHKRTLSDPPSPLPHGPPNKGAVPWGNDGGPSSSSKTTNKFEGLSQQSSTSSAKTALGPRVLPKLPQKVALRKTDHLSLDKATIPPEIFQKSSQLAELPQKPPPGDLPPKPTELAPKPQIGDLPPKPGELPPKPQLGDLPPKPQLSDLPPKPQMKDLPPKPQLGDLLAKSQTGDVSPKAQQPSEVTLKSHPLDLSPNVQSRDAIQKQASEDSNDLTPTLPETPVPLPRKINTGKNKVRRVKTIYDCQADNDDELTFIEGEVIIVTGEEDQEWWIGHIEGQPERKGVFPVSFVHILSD
# Format: functional
The source made the active and inactive calls.
assay metric: IC50

Guide cases for IC50, answers given:
Recorded IC50 for CCOc1ccc(C(=O)Nc2cccc(-c3cc4ccccc4oc3=O)c2)cc1[N+](=O)[O-] , please?
37.9 µM (inactive)

Recorded IC50 for COc1ccc(-n2nnnc2SCC(=O)c2ccc3c(c2)OCCO3)c(OC)c1 , please?
12.6 µM (inactive)

Recorded IC50 for Clc1ccc(Cn2cc(/C=N/n3cnnc3)c3ccccc32)c(Cl)c1 , please?
12.9 µM (inactive)

Read the next record carefully.
Recorded IC50 for Cc1ccc2nc(SCC(=O)N3CCCCC3)nc(=O)n2c1 , please?
45.9 µM (inactive)

----------
Here the recorded CC50 is given for each entry.
# assay procedure: microbe, parasite or virus in culture
# Assay type: functional
# study conditions: Mycobacterium tuberculosis
Activity calls are given as the source filed them.

Guide cases for CC50, answers given:
Recorded CC50 for S=C(Nc1ccc(Cl)cc1)Nc1cccc2cnccc12 , please?
> 40 µM (active)

Recorded CC50 for Cc1nnc(-c2ccccc2)c(=O)n1/N=C/c1c(O)ccc2ccccc12 , please?
18.9 µM (active)

Recorded CC50 for Cc1cccc(NC(=O)c2nc[nH]c2C(=O)N[C@H](C)c2ccccc2)c1 , please?
36.9 µM (active)

Read the next record carefully.
Recorded CC50 for Cc1nc(-c2nc(-c3c(C(=O)NNC(=O)c4ccc(Cl)cc4)noc3C)cs2)cs1 , please?
> 40 µM (active)

----------
# assay procedure: HepG2 cell cytotoxicity, dose response, cytotoxicity control for Shn3 inhibitor project, CellTiter-Glo, cherry-picked (AID 624134)
# Type: functional, cell-based
The source made the active and inactive calls.
assay metric: AC50

Guide cases for AC50, answers given:
Recorded AC50 for CC(=O)c1c(C)[nH]c(C(=O)OCC(=O)Nc2ccc(Cl)cc2[N+](=O)[O-])c1C , please?
53.2 µM (active)

Recorded AC50 for Cc1c(C(C)C)c(=O)n(-c2ccc(S(=O)(=O)NCc3ccccc3)cc2)n1C , please?
2.48 µM (active)

Recorded AC50 for COc1ccccc1CNc1nc(Nc2cccc(-c3cnco3)c2)c2sccc2n1 , please?
45.6 µM (active)

Recorded AC50 for O=[N+]([O-])c1c(NCCCO)cc(Sc2nc3ccccc3s2)c2nonc12 , please?
26.2 µM (active)

New cases:
Recorded AC50 for c1csc(CCNc2ncnc3sc4c(c23)CCC4)c1 , please?
7.76 µM (active)

Recorded AC50 for COC(=O)C1=C(c2ccc(-c3ccccc3)c(F)c2)C[C@@H]2CC[C@H]1N2C(=O)N1CCCC1 , please?
6.77 µM (active)

----------
The molecules below have reported AC50 for Cytochrome P450 2D6 (Homo sapiens).

Lab note: need AC50 for COc1cccc(CC(C(=O)Nc2cc(C)ccc2C)c2nn[nH]n2)c1OC (configuration not stated) on Cytochrome P450 2D6 (Homo sapiens), anyone have it?
15.8 µM (inconclusive)

Lab note: need AC50 for CCN(CC)CCc1nc(-c2ccccc2)no1 on Cytochrome P450 2D6 (Homo sapiens), anyone have it?
6.31 µM (inconclusive)

Lab note: need AC50 for Cc1nc2nc(C)c(CCC(=O)NCCCN3CCN(c4cccc(Cl)c4)CC3)c(C)n2n1 on Cytochrome P450 2D6 (Homo sapiens), anyone have it?
12.6 µM (inconclusive)

Lab note: need AC50 for O=C(OC1CCN(CCCl)CC1)C(c1ccccc1)c1ccccc1 on Cytochrome P450 2D6 (Homo sapiens), anyone have it?
31.6 µM (inconclusive)

Lab note: need AC50 for Cc1cc(NC(=O)c2ccc(S(=O)(=O)Nc3ccccc3)cc2)no1 on Cytochrome P450 2D6 (Homo sapiens), anyone have it?
25.1 µM (inconclusive)

Lab note: need AC50 for CCc1cc2c(nc1CC)CCN(CC/C(C)=N/O[C@@H](C)c1cn([C@@H]3COC[C@@H]3O)nn1)C2 on Cytochrome P450 2D6 (Homo sapiens), anyone have it?
2.51 µM (inconclusive)

Lab note: need AC50 for N=C(N)SCc1nc(-c2ccc(Cl)cc2)no1 on Cytochrome P450 2D6 (Homo sapiens), anyone have it?
3.16 µM (inconclusive)

Lab note: need AC50 for Nc1n[nH]c(SCC(=O)Nc2ccccc2Sc2ccc(Cl)cc2)n1 on Cytochrome P450 2D6 (Homo sapiens), anyone have it?
12.6 µM (inconclusive)

Lab note: need AC50 for COc1ccc(S(=O)(=O)N2CCN(CC(=O)Nc3cc(OC)cc(OC)c3)CC2)cc1 on Cytochrome P450 2D6 (Homo sapiens), anyone have it?
20 µM (inconclusive)

Lab note: need AC50 for CC(C)c1ccc(NC(=O)C(c2ccccc2)N2CCN(C=O)CC2)cc1 (configuration not stated) on Cytochrome P450 2D6 (Homo sapiens), anyone have it?
14.1 µM (inconclusive)

New cases:
Lab note: need AC50 for FC(F)(F)c1cccc(NC(S)=Nc2ccc(Cl)cc2Cl)c1 on Cytochrome P450 2D6 (Homo sapiens), anyone have it?
7.94 µM (inconclusive)

Lab note: need AC50 for COc1ccc(-c2cc(-c3cc(F)ccc3O)[nH]n2)cc1OC on Cytochrome P450 2D6 (Homo sapiens), anyone have it?
28.2 µM (inconclusive)

Lab note: need AC50 for COc1ccc(OC)c2nc(O)c(CCNS(=O)(=O)c3ccc(Cl)cc3)cc12 on Cytochrome P450 2D6 (Homo sapiens), anyone have it?
31.6 µM (inconclusive)

Lab note: need AC50 for Cc1cc(NC(=O)Nc2ccc(N(C)C)cc2)c2cc(F)cc(F)c2n1 on Cytochrome P450 2D6 (Homo sapiens), anyone have it?
31.6 µM (inconclusive)

Lab note: need AC50 for CCCCOc1cc(C(=O)NCCN(CC)CC)c2ccccc2n1 on Cytochrome P450 2D6 (Homo sapiens), anyone have it?
7.94 µM (inconclusive)

Lab note: need AC50 for C[N+](C)(C)/N=C\c1ccc(O)c(O)c1 on Cytochrome P450 2D6 (Homo sapiens), anyone have it?
2 µM (inconclusive)

Lab note: need AC50 for CCCCN1CCC(CCC(=O)c2cc(Cl)c(N)cc2OC)CC1 on Cytochrome P450 2D6 (Homo sapiens), anyone have it?
12.6 µM (inconclusive)
